# System: HCT-116
# procedureDetails: NCI tumour cell line growth inhibition, 48 h
Calls of active or inactive are those of the source. No stated cut-off is given here; in the data, active = GI50 up to about 1.1 µM and inactive = higher.
The reply should name one outcome from yes = active, no = inactive

molecule: COc1c(Sc2ccccc2)cc(Sc2ccccc2)c2cccnc12
system: HCT-116
assignedCategory: no

### Prompt # lookup: test call for CCCCCCCCCCCCCC(=O)O[C@H]1CC[C@H](NC(=O)[C@H](OC)[C@H](O)[C@@H](O)[C@H](O)/C=C/C(C)C)C(=O)N(C)C1 [BENGAMIDE B]
### Response yes

### Prompt State the result this test recorded for O=C(Sc1n[nH]c(=O)[nH]c1=O)c1cccc2nc3ccccc3nc12 .
### Response no

### Prompt State the result this test recorded for CCCCC(=O)Oc1ccc2c(C)cc(=O)oc2c1 .
### Response no

### Prompt Tell me the assay call for O=C1C2Nc3ccccc3SC2C(=O)N1c1cccc([N+](=O)[O-])c1 (centres undefined) please.
### Response no

### Prompt Tell me the recorded outcome of this test for COC1OC(COC(C)=O)C(OC(C)=O)C(OC(C)=O)C1NC(=O)N(CCCl)N=O (centres undefined) .
### Response no

### Prompt Tell me the recorded outcome of this test for COc1cc(OC)cc(Oc2nc3ccccc3nc2C(=O)O)c1 .
### Response no

### Prompt # fetch the recorded call for c1ccc(Cc2cccc3cc(-c4ccc(-c5ccccc5)cc4)[nH]c23)cc1 here
### Response no

### Prompt Hi team, can someone confirm the assay call for CC(C)(C)OC(=O)NC(Cc1ccccc1)C(=O)OCN1C(=O)C2C3C=CC(C2C1=O)C1C2C(=O)N(COC(=O)C(Cc4ccccc4)NC(=O)OC(C)(C)C)C(=O)C2C31 (centres undefined) ?
### Response no

### Prompt Any idea what this test logged for Clc1cc(Cl)c2cc3cccc[n+]3cc2c1Cl ?
### Response no

---

# System: OVCAR-8
# procedureDetails: NCI tumour cell line growth inhibition, 48 h
Active and inactive are the calls of the source. Rule as the data show it: active = GI50 up to about 1.1 µM and inactive = higher.
Reply using exactly one outcome from True for active, False for inactive

compound: Fc1ccc2c(c1)SC1Oc3ccccc3-c3c1c-2nn3-c1ccccc1 (stereo unspecified)
assignedCategory: False

compound: C=CCO/N=C/c1cc(/N=C(/S)c2ccoc2C)ccc1Cl
assignedCategory: False

compound: Oc1ccc(Cl)cc1C1=NC(/N=C\c2ccccc2)=NC(c2ccccc2)C1 (stereo unspecified)
assignedCategory: False

compound: CS(=O)(=O)CCC1CCC(=O)O1 (stereo unspecified)
assignedCategory: False

compound: Cc1cc(O)ccc1C1(c2ccc(F)cc2)OC(=O)c2ccccc21 (stereo unspecified)
assignedCategory: True

We now examine a further compound.
### Prompt Record lookup: outcome of this test for COc1c(O)cc2c3c(ccnc13)NC=C2 ?
### Response False

---

# Test system: OVCAR-8
# procedureDetails: NCI tumour cell line growth inhibition, 48 h
Calls of active or inactive are those of the source. Rule as the data show it: active = GI50 up to about 1.1 µM and inactive = higher.
metric: GI50

molecule: C=C1[C@H](OCC(C)C)[C@@H](OCC(C)C)[C@@H](O)C(C)(C)/C=C/[C@H](C)C(=O)[C@@]2(O)C[C@H](C)[C@H](O)[C@@H]2[C@H]1OCC(C)C
GI50: > 7.5 µM (inactive)

molecule: CC1CCC(C(C)C)C(OC(=O)NCn2cc(-c3ccccc3)nn2)C1 (stereo not given)
GI50: 75.5 µM (inactive)

molecule: O=C(N/N=C\c1cccc2c([N+](=O)[O-])cccc12)Nc1ccccc1
GI50: 12 µM (inactive)

### Prompt Data request, read-out GI50, for CC(C)(C)/C(=N\Nc1nc2ccccc2[nH]1)c1ccccn1
### Response > 100 µM (inactive)

### Prompt Give its GI50 value. Item: O=CNNC(=O)Nc1cccc2ccccc12
### Response > 100 µM (inactive)

---

# System: RPMI-8226
# procedureDetails: NCI tumour cell line growth inhibition, 48 h
Calls of active or inactive are those of the source. No stated cut-off is given here; in the data, active = GI50 up to about 1.1 µM and inactive = higher.
metric: GI50

Observe how each entry below is paired with its result.
compound: COc1cccc(OCC(=N/NC(=O)c2ccncc2)/N=C/c2cccnc2)c1
GI50: 68.2 µM (inactive)
--
compound: COc1cc(OC)cc(Oc2nc3ccccc3nc2C(=O)O)c1
GI50: > 100 µM (inactive)
--
compound: CCCCN(CCCC)CC(C(=O)Nc1ccc([N+](=O)[O-])cc1[N+](=O)[O-])/C(C)=N\NC(=O)C[N+](C)(C)C (centres undefined)
GI50: 27.7 µM (inactive)

Next:
### Prompt Recall the recorded GI50 for O=C1NC(=O)C(C(CC(=O)c2ccc([N+](=O)[O-])cc2)c2ccccc2)C(=O)N1 (centres undefined) with RPMI-8226 and state it.
### Response 31.3 µM (inactive)

---

# System: CAKI-1
# procedureDetails: NCI tumour cell line growth inhibition, 48 h
Active and inactive are the calls of the source. Rule as the data show it: active = GI50 up to about 1.1 µM and inactive = higher.
metric: GI50

Previously resolved entries follow.
molecule: Cc1ccc(S(=O)(=O)c2ccccc2[N+](=O)[O-])cc1
system: CAKI-1
metric: GI50
measured: 67.5 µM (inactive)
--
molecule: COc1c(Sc2ccccc2)cc(Sc2ccccc2)c2cccnc12
system: CAKI-1
metric: GI50
measured: 12.9 µM (inactive)
--
molecule: CS(=O)(=O)c1ccc(C2=C(c3ccccc3)C(=O)OC2)cc1 [ROFECOXIB]
system: CAKI-1
metric: GI50
measured: > 100 µM (inactive)
--
molecule: CC[C@H](C)[C@H]1NC(=O)[C@@H](NC(=O)[C@@H](CC(C)C)N(C)C(=O)C2CCCN2C(=O)[C@H](C)O)[C@@H](C)OC(=O)[C@@H]2Cc3ccccc3CN2C(=O)[C@@H]2CCCN2C(=O)[C@H](CC(C)C)NC(=O)[C@@H](C)C(=O)[C@H](C(C)C)OC(=O)C[C@@H]1O (some centres undefined)
system: CAKI-1
metric: GI50
measured: 4.92 µM (inactive)
--
molecule: Nc1nc2sc3ccccc3c(=O)n2n1
system: CAKI-1
metric: GI50
measured: > 100 µM (inactive)

### Prompt I have this molecule here, CCc1n[nH]c(=O)n1/N=C/c1ccccc1Cl , and I need its recorded GI50.
### Response > 100 µM (inactive)

### Prompt Which GI50 is reported for this molecule? COc1ccc(C2=NNC(=O)OC2c2ccccc2)cc1 (centres undefined)
### Response 92.3 µM (inactive)

### Prompt I would be grateful if you could share the reported GI50 for N/C(S)=N/N=C/c1cc(CN2CCOCC2)c(N)cn1 .
### Response 45.7 µM (inactive)

### Prompt Would you mind telling me what GI50 value was observed for CCN1CC2(COC)C(O)CC(OC)C34C5CC6(O)C(OC)C=C(C5C6OC(=O)c5ccc(OC)c(OC)c5)C(C(OC)C23)C14 (centres undefined) ?
### Response > 7.5 µM (inactive)

---

# Tested on: NCI-H23
# procedureDetails: NCI tumour cell line growth inhibition, 48 h
Calls of active or inactive are those of the source. Rule as the data show it: active = GI50 up to about 1.1 µM and inactive = higher.
Give one outcome, nothing more. List: 1.0 = active, 0.0 = inactive

compound: CCCCCCCCCCCCCC(=O)O[C@H]1CC[C@H](NC(=O)[C@H](OC)[C@H](O)[C@@H](O)[C@H](O)/C=C/C(C)C)C(=O)N(C)C1 [BENGAMIDE B]
system: NCI-H23
assignedCategory: 1.0

compound: CC(C)CC1C(=O)NCCC(NC(=O)C(N)Cc2ccc(O)cc2)C(=O)NC(Cc2ccccc2)C(=O)NC(Cc2ccccc2)NC1=O (stereo not drawn)
system: NCI-H23
assignedCategory: 0.0

compound: CN1c2ccc(O)c(O)c2-c2cc(O)cc3c2C1CCC3 (stereo not drawn)
system: NCI-H23
assignedCategory: 0.0

compound: COc1ccc(CN2CC(C)(C)C2=O)c(OC)c1
system: NCI-H23
assignedCategory: 0.0

compound: COc1ccc(/C=N/NS(=O)(=O)c2ccc(/C=C3\NC(=O)N(C)C3=O)cc2)cc1
system: NCI-H23
assignedCategory: 0.0

### Prompt Called result for CN[C@@H](C)[C@@H](N)c1ccccc1
### Response 0.0

### Prompt Which outcome was entered for the compound COC1OC(COC(C)=O)C(OC(C)=O)C(OC(C)=O)C1NC(=O)N(CCCl)N=O (stereo not drawn) in this test?
### Response 0.0

### Prompt Outcome logged for CSC12c3cc(C)n(-c4ccccc4)c3CC(C)(C)CN1C(=O)C2Oc1ccccc1 (stereo not drawn) in this assay:
### Response 0.0

### Prompt Status in this test for O=[As](O)(O)c1ccc(/N=N/c2ccc([As](=O)(O)O)cc2)cc1 ?
### Response 0.0

### Prompt # outcome recorded in this test, key = COc1cnnc2c(C)c(-c3ccccc3)nn12
### Response 0.0

### Prompt Please state the recorded outcome for this compound: Nc1nc(Cl)cc(NCC2(CO)CCC(Cc3ccccc3)C2)n1 (stereo not drawn)
### Response 0.0

---

# Test system: SR
# procedureDetails: NCI tumour cell line growth inhibition, 48 h
Active and inactive are the calls of the source. No stated cut-off is given here; in the data, active = GI50 up to about 1.1 µM and inactive = higher.
// GI50 lookup, one value per entry

Some entries whose results are on file:
compound: COC(=O)c1ccccc1CC(Cc1ccccc1)C(=O)OC (stereo not given)
metric: GI50
measured: 27 µM (inactive)
//
compound: COc1ccc(/N=C\c2ccc(N(CCC#N)S(=O)(=O)c3ccccc3)cc2C)cc1
metric: GI50
measured: 7.96 µM (inactive)
//
compound: O=C1C(Nc2ccc(S(=O)(=O)Nc3cnc4ccccc4n3)cc2)=C/C(=N\c2ccc(S(=O)(=O)Nc3cnc4ccccc4n3)cc2)c2ccccc21
metric: GI50
measured: 31.4 µM (inactive)
//
compound: Cc1c(C)c(C)c(-n2c(=O)n(C)c(=O)n2-n2c(=O)n(C)c(=O)n2-c2c(C)c(C)c(C)c(C)c2C)c(C)c1C
metric: GI50
measured: 20.5 µM (inactive)

### Prompt What does the record list as GI50 for CS(=O)(=O)CCC1CCC(=O)O1 (stereo not given) ?
### Response 85.1 µM (inactive)
